Reference source for all entries: ChEMBL document CHEMBL1122543

test system: Nucleic Acid; test: Relative binding affinity for calf thymus DNA in MES 10 at 25 degrees C (Spectrophotometric data); type: nucleic-acid assay; conditions: Bos taurus
QUANTITY KIND: K

Record excerpt, results attached:
Short answer for CN(C)CCCN1C(=O)c2cccc3cccc(c23)C1=O : K was 0.0089

get_value(item= CN(C)CCCN1C(=O)c2cccc3cc([N+](=O)[O-])cc(c23)C1=O , readout=K) returns 0.0234

Entry CN(C)CCCN1C(=O)c2cccc3c([N+](=O)[O-])ccc(c23)C1=O ; K = 0.0083

// K value for CN(C)CCCN1C(=O)c2cccc3cc(N)cc(c23)C1=O : 0.0112

***
Memo: CN(C)CCCN1C(=O)c2cccc3c(N)ccc(c23)C1=O , reported K: 0.0162
